Please provide measured growth at 10 µM for the entries that follow.
assay: Growth inhibition of human UO31 cells assessed as cell growth at 10^-5 M after 48 hrs by sulforhodamine B assay; assay type: functional; conditions: UO-31, 48 h, read-out: Activity
Give bare numbers, in %.

Sample records with growth at 10 µM:
>  <Sample smiles>
Cc1ccc(S(=O)(=O)N2C/C(=C\c3cc(F)cc(F)c3)C(=O)/C(=C/c3cc(F)cc(F)c3)C2)cc1

>  <Units text>
%

>  <growth at 10 µM>
-92

$$$$
>  <Sample smiles>
Cc1ccc(S(=O)(=O)N2C/C(=C\c3c(Cl)cccc3Cl)C(=O)/C(=C/c3c(Cl)cccc3Cl)C2)cc1

>  <Units text>
%

>  <growth at 10 µM>
72.5

$$$$
>  <Sample smiles>
O=C1/C(=C/c2ccc(Cl)cc2Cl)CN(S(=O)(=O)c2ccccc2)C/C1=C\c1ccc(Cl)cc1Cl

>  <Units text>
%

>  <growth at 10 µM>
-63

$$$$

Now, please, on to the next compound.
# query: growth at 10 µM of entry `O=C1/C(=C/c2c(Cl)cccc2Cl)CN(S(=O)(=O)c2ccccc2)C/C1=C\c1c(Cl)cccc1Cl`
73.7

Data provenance is ChEMBL document CHEMBL3217615.
